Reference for the values: patent US20240317847A1

- Target entity: T1, human IL-11 (Invigate, e.g., lot #C121021-19) (human, UniProt P20809 22-199)
- T1 construct: Bought protein; also called hIL-11; hIL11
- T1 sequence: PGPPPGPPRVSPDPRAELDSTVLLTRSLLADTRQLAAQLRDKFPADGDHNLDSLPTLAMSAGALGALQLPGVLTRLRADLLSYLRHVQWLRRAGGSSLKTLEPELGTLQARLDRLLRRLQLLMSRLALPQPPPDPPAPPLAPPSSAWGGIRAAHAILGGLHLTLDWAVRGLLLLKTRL
- Method description: SPR, Biacore 8K; antibody captured on anti-human IgG Fc chip, IL-11 analyte 0-50 nM, 1:1 fit
Outcome measure: pKd
Please treat pKd as minus the base-10 logarithm of the molar concentration.

{"Binder": "TPP-31278 (antibody, human IgG4, V domains shown, consecutive numbering; also called VL-A33Y) VH: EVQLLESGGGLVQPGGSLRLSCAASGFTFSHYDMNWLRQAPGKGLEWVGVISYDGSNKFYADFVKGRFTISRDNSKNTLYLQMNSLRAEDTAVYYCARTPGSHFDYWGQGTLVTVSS VL: QSVLTQPPSASGTPGQRVTISCSGSSSNIGNNYVNWYQQLPGTAPKLLIYYDDLLPSGVPDRFSGSKSGTSASLAISGLRSEDEADYYCSAWDDSLNGVVFGGGTKLTVL", "Value": 8.70}
{"Binder": "TPP-31303 (antibody, human IgG4, V domains shown, consecutive numbering; also called VH-D54E / VL-G98A) VH: EVQLLESGGGLVQPGGSLRLSCAASGFTFSHYDMNWLRQAPGKGLEWVGVISYEGSNKFYADFVKGRFTISRDNSKNTLYLQMNSLRAEDTAVYYCARTPGSHFDYWGQGTLVTVSS VL: QSVLTQPPSASGTPGQRVTISCSGSSSNIGNNAVNWYQQLPGTAPKLLIYYDDLLPSGVPDRFSGSKSGTSASLAISGLRSEDEADYYCSAWDDSLNAVVFGGGTKLTVL", "Value": 8.16}
{"Binder": "TPP-31283 (antibody, human IgG4, V domains shown, consecutive numbering; also called VL-L54Q) VH: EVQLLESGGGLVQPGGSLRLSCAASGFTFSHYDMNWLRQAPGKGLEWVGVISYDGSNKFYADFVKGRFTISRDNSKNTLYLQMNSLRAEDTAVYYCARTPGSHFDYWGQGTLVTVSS VL: QSVLTQPPSASGTPGQRVTISCSGSSSNIGNNAVNWYQQLPGTAPKLLIYYDDQLPSGVPDRFSGSKSGTSASLAISGLRSEDEADYYCSAWDDSLNGVVFGGGTKLTVL", "Value": 7.32}
{"Binder": "TPP-31290 (antibody, human IgG4, V domains shown, consecutive numbering; also called VH-H31S) VH: EVQLLESGGGLVQPGGSLRLSCAASGFTFSSYDMNWLRQAPGKGLEWVGVISYDGSNKFYADFVKGRFTISRDNSKNTLYLQMNSLRAEDTAVYYCARTPGSHFDYWGQGTLVTVSS VL: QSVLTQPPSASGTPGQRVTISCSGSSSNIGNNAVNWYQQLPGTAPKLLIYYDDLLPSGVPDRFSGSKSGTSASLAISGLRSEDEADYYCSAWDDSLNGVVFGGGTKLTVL", "Value": 6.54}

Kindly consider the entry below.
## Task Can you share its pKd? I mean this binder: TPP-31306 (antibody, human IgG4, V domains shown, consecutive numbering; also called VH-G55A / VL-N97S) VH: EVQLLESGGGLVQPGGSLRLSCAASGFTFSHYDMNWLRQAPGKGLEWVGVISYDASNKFYADFVKGRFTISRDNSKNTLYLQMNSLRAEDTAVYYCARTPGSHFDYWGQGTLVTVSS VL: QSVLTQPPSASGTPGQRVTISCSGSSSNIGNNAVNWYQQLPGTAPKLLIYYDDLLPSGVPDRFSGSKSGTSASLAISGLRSEDEADYYCSAWDDSLSGVVFGGGTKLTVL
## Result 7.82
